# assayOverview: method code SF-AS, from DOI: 10.1016/0048-3575(87)90042-3
endpoint: logP

Known logP results, listed for orientation:
Tell me measured logP for NC(=O)c1c(F)cccc1F please.
0.25

Tell me measured logP for COc1ccccc1C(N)=O please.
0.84

Tell me measured logP for CNC(=O)NC(=O)c1ccccc1 please.
1.27

A. Cc1cccc([N+](=O)[O-])c1C(=O)NC(=O)Nc1ccc(Cl)cc1
B. Cc1cccc([N+](=O)[O-])c1C(N)=O
Kindly compare A with B and tell me which has the lower logP figure. State the label of the item chosen.
B

1. COc1ccccc1C(=O)NC(=O)Nc1ccc(Cl)cc1
2. CCNC(=O)NC(=O)c1ccccc1
Kindly compare 1 with 2 and tell me which has the lower logP figure. State the label of the item chosen.
2
(2: 1.92, 1: 4.35)

A. CC(=O)NC(=O)Nc1ccccc1
B. NC(=O)Nc1ccccc1
Kindly compare A with B and tell me which has the lower logP figure. State the label of the item chosen.
B

Data provenance is the SangsterLogP compilation.
